assay: yeast display, Sf9 membrane polyspecificity reagent, FACS + sequencing; frameworks hold sequencing errors
Measurement type: polyreactivity (PSR sort gate)

Construct sequence | Val
QVQLVESGGGLVQAGGSLRLSCAASGSIFYVNAMGWYRQAPGKERELVAAINWSGGRTYYADSVKGRFTISRDTAKNTVYLQMNSLKPEDTAVYYCAATVRRRYERYNYWGQGTQVTVSS | high polyreactivity
QDQLVESGGGLVQAGGSLRLSCAASGSTLRRYAMGWYRQAPGKERELVAAISGSGDSTYYADSVKGRFTISRDNAKNTVYLQMNSLKPEDTAVYYCNAVYAFNGYDYWGQGTQVTVSS | low polyreactivity
QVQLVESGGGLVQAGGSLRLSCAASGRTFIGYAMGWYRQAPGKERELVAAISSSGGRTYYADSVKGRFTISRDNAKNTVYLQMNSLKPEDTAVYYCNAVRYVLGYSYDYNYWGQGTQVTVSS | high polyreactivity
QVQHVESGGGLVQAGGSLRLSSAASGGTFNVYAMGWYRQAPGKESELVAAIRWSGGSTYYADSVKGRFTISRDNAKNTVYLQMNSLKPEDTAVYFCAARFYGRSQTYGSWGLGTQVTVSS | high polyreactivity
QVQLVESGGGLVQAGGSLRLSCAASGFTFEYNALGWYRQAPGKERELVAAISSGGRTNYADSVKGRFTISRDNAKNTVYLQMNSLKPEDTAVYYCAKRLGVRPAFYYWGQGTLVTVSS | high polyreactivity
QVQLVESRGCLVQAGVSLRLSCSASGSIFKIYAMGWYRQAPGKERELVATITGIADSTYYADSVKGRFTISRDNAKNTVYLLMNSLKPDDNAVYYCAADNYVADYDYWGQGTQVTVSS | low polyreactivity
QVQLVESGGGLVQAGGSLRLSCAASGRTFSKYVMGWYRQAPGKERELVATITSGGSTYYADSVKGRFTISRDNAKNTVYLQMNSLKPEDTAVYYCAARIWYYNYWGQGTQVTVSS | high polyreactivity
QVQLVESGGGLVQAGGSLRLSCAASGSIFKTNAMGWYRQAPRKERELVAGISNVGSTNYADSVKGRFTISRDNAKNTVYLQMNSLKPEDTAVYYCAAPYTSQTIPDYVRYFIEYDYWGQATQVTVSS | low polyreactivity
QVQLVESGGGLVQAGGSLRLSCAASGNIFSVYAMGWYRKAPGKERELVAAISSSGGRTYYADSVKGRFTISRDNEKNTVYLHMNSLKPEDTAVYYCAARSYTGQFVYWGQGTQVTVSS | high polyreactivity
QVQLVESGGGLVQAGGSLRLSCAASGSIYEINAMGWYRQAPGKERELVAAITGSGGSTHYADSVKGRFTISRDNAKNTVYLQMNSLKPEDTAVYYCAAVPRYQYGYWGQGTQVTVSS | low polyreactivity

# input for lookup
What value of measured polyreactivity (PSR sort gate) is listed for QVQLVESGGGLVQAGGSLRLSWAASGSIFDENAMGLSRQAPGKERELVAAISRSTGSTYYADSVKGRFTISRDKAKNTVYVQMNSLKPEDTAVYYCNALTYLRGPPWYTLDYWGQGTQVTVSS ?
low polyreactivity
